Values were extracted from paper PMC4757417.

measurement-target: Lin1840r (Listeria innocua)
test-details: Inhibition kinetics of hydrolytic activity toward pNP-β-Glc
Assay type: biochemical
experimental-parameters: substrate pNP-β-Glc; read-out: Ki
metric: Ki (µM)
Numbers only, in µM.

Briefly, Ki measured for OC[C@H]1CNC[C@@H](O)[C@@H]1O [IFG, isofagomine D-tartrate] : 4.1

====

measurement-target: Lin1840r (Listeria innocua, UniProt Q92AS9)
Sequence (Q92AS9 entry or part of it): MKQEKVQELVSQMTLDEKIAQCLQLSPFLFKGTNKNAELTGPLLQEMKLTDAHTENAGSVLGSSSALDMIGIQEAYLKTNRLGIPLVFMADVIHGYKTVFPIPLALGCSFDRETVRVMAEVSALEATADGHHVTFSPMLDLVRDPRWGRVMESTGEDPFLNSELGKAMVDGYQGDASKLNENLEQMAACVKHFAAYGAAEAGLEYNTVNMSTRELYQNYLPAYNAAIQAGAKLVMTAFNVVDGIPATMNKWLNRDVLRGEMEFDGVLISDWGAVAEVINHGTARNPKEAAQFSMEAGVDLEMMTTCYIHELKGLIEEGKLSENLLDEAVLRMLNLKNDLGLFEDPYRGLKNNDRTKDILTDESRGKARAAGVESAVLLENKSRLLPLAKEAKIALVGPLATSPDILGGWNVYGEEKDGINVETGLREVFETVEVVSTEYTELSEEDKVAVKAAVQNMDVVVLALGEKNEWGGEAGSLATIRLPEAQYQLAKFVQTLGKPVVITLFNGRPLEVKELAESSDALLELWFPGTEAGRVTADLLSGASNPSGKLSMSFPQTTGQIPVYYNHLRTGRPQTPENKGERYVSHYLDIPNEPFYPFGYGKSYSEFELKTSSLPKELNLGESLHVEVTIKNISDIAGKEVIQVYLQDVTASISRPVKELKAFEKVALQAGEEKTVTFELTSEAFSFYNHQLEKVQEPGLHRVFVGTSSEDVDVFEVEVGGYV
test-details: Inhibition kinetics of hydrolytic activity toward pNP-β-Glc
Assay type: biochemical
experimental-parameters: Ki, substrate pNP-β-Glc
metric: pKi
Answers are plain numbers, as −log10 of the molar value.

Sample OC[C@H]1NC[C@H](O)[C@@H](O)[C@@H]1O [DNJ, 1-deoxynojirimycin] ; pKi observed: 3.54
